So I've got a bunch of compounds here, and I need their IC50 values.
Tested on: TGF-β-stimulated SMAD3 phosphorylation in BEAS-2B cells
Procedure Summary: Cellular ALK5 potency assay, inhibition of TGF-β stimulated pSMAD3 formation in BEAS-2B cells
Assay type: cell-based
Assay Context: Homo sapiens, inhibition of TGF-β (10 ng/mL) stimulated pSMAD3 formation, 1 hour compound incubation, read-out: BEAS2B pIC50 (converted)

Query: Look up IC50 for this compound: Fc1ccc(Cl)cc1-c1nc2ccccn2c1-c1ccc2ncc(-c3nc4n(n3)CCNC4)cc2n1
Response: 25.1 to 158 nM

Query: Same thing, different compound: CC1(C)CCCN1CCNc1cnc2ccc(-c3c[nH]nc3-c3ccc(F)c(F)c3)nc2c1
Response: 25.1 to 158 nM

Query: Same thing, different compound: CC(C)N1CCN(CCNc2cnc3ccc(-c4c[nH]nc4-c4ccc(F)c(F)c4)nc3c2)CC1
Response: 25.1 to 158 nM

Below are some compounds; for each one, tell me its IC50.
1. NC(=O)C1CN(c2cnc3ccc(-c4c[nH]nc4-c4cc(Cl)ccc4F)nc3c2)CCN1 (racemic)
2. Fc1ccc(Cl)cc1-c1n[nH]cc1-c1ccc2ncc(NCC3CCN3)cc2n1 (centres unmarked)
3. CC(C)N1CCN(CCNc2cnc3ccc(-c4c(-c5cc(Cl)ccc5F)nc5ccccn45)cc3c2)CC1
4. CCOC(=O)[C@H]1CN(c2cnc3ccc(-c4nc[nH]c4-c4cc(Cl)ccc4F)nc3c2)CCN1
5. Fc1ccc(-c2n[nH]cc2-c2ccc3ncc(-c4cn[nH]c4)cc3n2)cc1F

Response:
1. 25.1 to 158 nM
2. 25.1 to 158 nM
3. 200 to 1260 nM
4. 25.1 to 158 nM
5. ≤ 20 nM

---

Assay Target: recombinant human ALK5 (TGF-βR1) protein (Homo sapiens)
Sequence (P36897 34-503): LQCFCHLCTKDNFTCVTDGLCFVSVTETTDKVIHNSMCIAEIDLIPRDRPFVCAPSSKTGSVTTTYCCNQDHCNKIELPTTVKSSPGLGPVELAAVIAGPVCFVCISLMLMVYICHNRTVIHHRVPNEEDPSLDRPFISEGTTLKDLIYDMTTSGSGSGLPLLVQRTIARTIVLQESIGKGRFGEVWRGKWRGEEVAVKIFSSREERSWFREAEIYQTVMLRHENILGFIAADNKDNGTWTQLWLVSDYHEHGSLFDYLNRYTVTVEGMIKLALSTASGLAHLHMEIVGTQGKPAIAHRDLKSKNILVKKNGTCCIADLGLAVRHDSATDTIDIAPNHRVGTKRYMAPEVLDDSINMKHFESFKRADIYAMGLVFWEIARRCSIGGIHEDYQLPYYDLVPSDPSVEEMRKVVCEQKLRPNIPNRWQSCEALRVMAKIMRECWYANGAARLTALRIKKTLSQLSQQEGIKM
Procedure Summary: Biochemical ALK5 (TGF-βR1) assay to measure pKi (LANCE Ultra ULight kinase assay)
Assay Context: apparent pKi, converted from pIC50 using the Cheng-Prusoff equation
pKi: −log10 of the molar value.
So I've got a bunch of compounds here, and I need their pKi values.

Query: Look up pKi for this compound: Oc1cnc2ccc(-c3c[nH]nc3-c3cc(Cl)ccc3F)nc2c1
Response: 8.50 to 9.40

Query: Same thing, different compound: CNCCn1cc(-c2cnc3ccc(-c4c[nH]nc4-c4cc(O)ccc4C)nc3c2)cn1
Response: 8.50 to 9.40

Query: Same thing, different compound: COCc1cccc(-c2[nH]cnc2-c2ccc3ncc(NCCN4CCN(C(C)C)CC4)cc3n2)c1
Response: 7.50 to 8.40

Below are some compounds; for each one, tell me its pKi.
1. CNCCn1cc(-c2cnc3ccc(-c4nc[nH]c4-c4cc(Cl)ccc4F)cc3c2)cn1
2. COC(=O)N1CCc2nnc(-c3cnc4ccc(-c5c[nH]nc5-c5cc(Cl)c(F)cc5F)nc4c3)cc2C1
3. COC(=O)c1coc(-c2cnc3ccc(-c4c[nH]nc4-c4cc(Cl)ccc4F)nc3c2)n1
4. COCc1cccc(-c2n[nH]cc2-c2ccc3ncc(N4CCC(N(C)C)CC4)cc3n2)c1
5. CC(C)(C)N1CCN(CCNc2cnc3ccc(-c4c[nH]nc4-c4cc(Cl)c(F)cc4F)nc3c2)CC1
6. CNCCn1cc(-c2cnc3ccc(-c4nc[nH]c4-c4cc(Cl)c(F)cc4F)nc3c2)cn1
7. CCN1CCN(CCNc2cnc3ccc(-c4c[nH]nc4-c4cc(Cl)c(F)cc4F)nc3c2)CC1

Response:
["≥ 10.50", "9.50 to 10.40", "8.50 to 9.40", "7.50 to 8.40", "9.50 to 10.40", "9.50 to 10.40", "9.50 to 10.40"]

The values you see were collected from patent US11730720B2.
